conditions: in acetonitrile, 283.15 K
recorded metric: solubility (mole fraction)

1) COc1cc(/C=C/C(=O)CC(=O)/C=C/c2ccc(O)c(OC)c2)ccc1O :: 0.00083

====

conditions: in THF, 313.15 K
recorded metric: solubility (mole fraction)

1) COc1cc(/C=C/C(=O)CC(=O)/C=C/c2ccc(O)c(OC)c2)ccc1O :: 0.302

====

details: in n-heptane, 323.15 K
recorded metric: solubility (mole fraction)

1) COc1cc(/C=C/C(=O)CC(=O)/C=C/c2ccc(O)c(OC)c2)ccc1O :: 0.00052

====

settings: in isopropanol, 288.15 K
recorded metric: solubility (mole fraction)

1) COc1cc(/C=C/C(=O)CC(=O)/C=C/c2ccc(O)c(OC)c2)ccc1O :: 0.002
